// merged dataset of pIC50 values, system = RAC-gamma serine/threonine-protein kinase (Homo sapiens, UniProt Q9Y243), multiple refs
pIC50: −log10 of the molar value.

Past entries and their recorded results:
| smi | result |
| --- | --- |
| CNc1[nH]nc2c1CCc1nc(-c3ccc(C4(N)CCC4)cc3)c(-c3ccccc3)cc1-2 | < 5.00 |
| c1cc(Nc2ccc3[nH]ccc3c2)c2cc[nH]c2n1 | ≥ 5.00 |
| Nc1cccc(-c2cnc3[nH]cc(C(=O)c4cccc(O)c4F)c3c2)c1 | ≥ 5.00 |
| C[C@H]1Oc2nc(-c3ccc(C4(N)CCC4)cc3)c(-c3ccccc3)cc2N(C)C1=O | < 5.00 |
| Cn1ncc(Cl)c1-c1ccc2c(c1)CN([C@H](CN)Cc1cccc(-c3ccncc3)c1)C2=O | < 5.30 |

Okay, now this compound:
Result for "Nc1ncc2c(n1)-c1cc(-c3ccccc3)c(-c3ccc(C4(N)CCC4)cc3)nc1CC2" , tested on RAC-gamma serine/threonine-protein kinase (Homo sapiens, UniProt Q9Y243), pIC50: 5.00 to 6.00

* * *

pIC50: −log10 of the molar value.
// merged dataset of pIC50 values, system = RAC-gamma serine/threonine-protein kinase (Homo sapiens), multiple refs

| smi | pIC50 |
| --- | --- |
| CS(=O)(=O)CN1C(=O)COc2nc(-c3ccc(C4(N)CCC4)cc3)c(-c3ccccc3)cc21 | 5.00 to 6.00 |

Result for "OCc1cccc(-c2ccnc3[nH]cc(Sc4ccccn4)c23)c1" , tested on RAC-gamma serine/threonine-protein kinase (Homo sapiens), pIC50: ≥ 5.00

Result for "Cn1ncc(Cl)c1-c1ccc2c(c1)CN([C@H](CN)Cc1ccccc1)C2=O" , tested on RAC-gamma serine/threonine-protein kinase (Homo sapiens), pIC50: > 6.30

Result for "O=C(c1ccc(O)cc1)c1c[nH]c2ncc(-c3cccs3)cc12" , tested on RAC-gamma serine/threonine-protein kinase (Homo sapiens), pIC50: ≥ 5.00

Result for "Cc1cnn(C)c1-c1ccc2c(c1)CN([C@H](CN)Cc1cccc(F)c1)C2=O" , tested on RAC-gamma serine/threonine-protein kinase (Homo sapiens), pIC50: > 6.30

Result for "O=C(c1cccc(O)c1F)c1c[nH]c2ncc(Br)cc12" , tested on RAC-gamma serine/threonine-protein kinase (Homo sapiens), pIC50: ≥ 5.00

Result for "Cc1c(O)cccc1C(=O)c1c[nH]c2ncc(-c3cccnc3)cc12" , tested on RAC-gamma serine/threonine-protein kinase (Homo sapiens), pIC50: ≥ 5.00

Result for "CN(C)c1cccc(Nc2ccnc3[nH]ccc23)c1" , tested on RAC-gamma serine/threonine-protein kinase (Homo sapiens), pIC50: ≥ 5.00

Result for "NC(=O)c1cccc(-c2cnc3[nH]cc(C(=O)c4ccc(O)cc4F)c3c2)c1" , tested on RAC-gamma serine/threonine-protein kinase (Homo sapiens), pIC50: ≥ 5.00

Result for "C#Cc1cccc(C[C@@H](CN)N2Cc3cc(-c4ccnn4C)ccc3C2=O)c1" , tested on RAC-gamma serine/threonine-protein kinase (Homo sapiens), pIC50: > 6.30

Result for "N#CCCCCN1C(=O)COc2nc(-c3ccc(C4(N)CCC4)cc3)c(-c3ccccc3)cc21" , tested on RAC-gamma serine/threonine-protein kinase (Homo sapiens), pIC50: 5.00 to 6.00

* * *

pIC50: −log10 of the molar value.
// merged dataset of pIC50 values, system = RAC-gamma serine/threonine-protein kinase (Homo sapiens), multiple refs

| compound | observable | result |
| --- | --- | --- |
| c1cc(-c2ccc(N3CCNCC3)nc2)c2cc[nH]c2n1 | pIC50 | ≥ 5.00 |
| NC[C@H](Cc1cccc(F)c1)NC(=O)c1cc2c(s1)C(=O)CCn1ncc(Cl)c1-2 | pIC50 | 6.09 |
| Cn1ncc(Cl)c1-c1cc2c(cn1)C(=O)N([C@H](CN)Cc1cc(F)cc(F)c1)C2 | pIC50 | > 6.30 |
| CCN1C(=O)COc2nc(-c3ccc([C@]4(N)C[C@](C)(O)C4)cc3)c(-c3ccccc3)cc21 | pIC50 | 6.00 to 7.00 |
| Cn1nccc1-c1ccc2c(c1)CN([C@@H](CN)c1ccccc1)C2=O | pIC50 | 5.30 to 6.30 |

Okay, now this compound:
Result for "Cn1ncc(Cl)c1-c1ccc2c(c1)CN([C@H](CN)Cc1ccsc1)C2=O" , tested on RAC-gamma serine/threonine-protein kinase (Homo sapiens), pIC50: > 6.30

* * *

// merged dataset of pIC50 values, system = RAC-gamma serine/threonine-protein kinase (Homo sapiens), multiple refs
pIC50: −log10 of the molar value.

| compound | system | result |
| --- | --- | --- |
| COc1ncccc1-c1cnn(C)c1-c1ccc2c(c1)CN([C@H](CN)Cc1cccc(F)c1)C2=O | RAC-gamma serine/threonine-protein kinase (Homo sapiens) | < 5.30 |
| CN1CCC(NC[C@H](Cc2cccc(F)c2)N2Cc3cc(-c4c(Cl)cnn4C)ccc3C2=O)CC1 | RAC-gamma serine/threonine-protein kinase (Homo sapiens) | 5.30 to 6.30 |
| c1cc(Nc2ccc(N3CCCCC3)cc2)c2cc[nH]c2n1 | RAC-gamma serine/threonine-protein kinase (Homo sapiens) | ≥ 5.00 |
| C[C@]1(O)C[C@@](N)(c2ccc(-c3nc4c(cc3-c3ccccc3)N(CC#N)C(=O)CO4)cc2)C1 | RAC-gamma serine/threonine-protein kinase (Homo sapiens) | 5.00 to 6.00 |
| NC1(c2ccc(-c3nc4c(cc3-c3ccccc3)N(C3CCCC3)C(=O)CO4)cc2)CCC1 | RAC-gamma serine/threonine-protein kinase (Homo sapiens) | 5.00 to 6.00 |

The reported value for "CN1CC(=O)Nc2cc(-c3ccccc3)c(-c3ccc(C4(N)CCC4)cc3)nc21" in terms of pIC50 is < 5.00

The reported value for "CN(C)c1ccc(Nc2cnc3[nH]ccc3c2)cc1" in terms of pIC50 is ≥ 5.00

* * *

// merged dataset of IC50 values, system = RAC-gamma serine/threonine-protein kinase (Homo sapiens, UniProt Q9Y243), multiple refs

Past entries and their recorded results:
| smi | IC50 |
| --- | --- |
| Cn1ncc(Cl)c1-c1ccc2c(c1)CN([C@H](CN)CC1CCCCC1)C2=O | < 0.5 µM |
| NC1(c2ccc(-c3nc4c(cc3-c3ccccc3)-c3n[nH]c(NCCO)c3CC4)cc2)CCC1 | > 10 µM |
| NC[C@H](Cc1ccncc1)NC(=O)c1cc2c(s1)CCCn1ncc(Cl)c1-2 | 1.13 µM |
| C[C@H]1Oc2nc(-c3ccc(C4(N)CCC4)cc3)c(-c3ccccc3)cc2N(CC#N)C1=O | 1 to 10 µM |
| Cn1nccc1-c1ccc2c(c1)CN([C@H](CN)CC1CC1)C2=O | > 5 µM |

Result for "NC1(c2ccc(-c3nc4c(cc3-c3ccccc3)-n3cnnc3CO4)cc2)CCC1" , tested on RAC-gamma serine/threonine-protein kinase (Homo sapiens, UniProt Q9Y243), IC50: > 10 µM

Result for "CSc1ccc(Nc2cnc3[nH]ccc3c2)cc1" , tested on RAC-gamma serine/threonine-protein kinase (Homo sapiens, UniProt Q9Y243), IC50: ≤ 10 µM

Result for "Cn1ncc(Cl)c1-c1ccc2c(c1)CN([C@H](CN)Cc1cc(F)cc(F)c1)C2=O" , tested on RAC-gamma serine/threonine-protein kinase (Homo sapiens, UniProt Q9Y243), IC50: < 0.5 µM

* * *

pIC50: −log10 of the molar value.
// merged dataset of pIC50 values, system = RAC-gamma serine/threonine-protein kinase (Homo sapiens, UniProt Q9Y243), multiple refs

Past entries and their recorded results:
| smi | pIC50 |
| --- | --- |
| NC[C@H](Cc1cccnc1)NC(=O)c1cc2c(s1)CCCn1ncc(Cl)c1-2 | 6.53 |
| CN1C(=O)COc2nc(-c3ccc(C4(N)CCC4)cc3)c(-c3ccccc3)cc21 | 5.00 to 6.00 |
| O=C(c1cccc(O)c1)c1c[nH]c2ncc(Br)cc12 | ≥ 5.00 |

The reported value for "CCCOc1ccc(Nc2cnc3[nH]ccc3c2)cc1" in terms of pIC50 is ≥ 5.00

The reported value for "NC[C@H](Cc1ccc(F)c(F)c1)NC(=O)c1cc2c(s1)OCCn1ncc(Cl)c1-2" in terms of pIC50 is 7.17

The reported value for "NC1(c2ccc(-c3nc4c(cc3-c3ccccc3)-n3c(nnc3CC(F)(F)F)CO4)cc2)CCC1" in terms of pIC50 is 5.00 to 6.00

* * *

// merged dataset of IC50 values, system = RAC-gamma serine/threonine-protein kinase (Homo sapiens), multiple refs

| compound | IC50 |
| --- | --- |
| Cn1ncc2c1-c1cc(-c3ccccc3)c(-c3ccc(C4(N)CCC4)cc3)nc1CC2 | 1 to 10 µM |
| Cn1ncc(-c2ccsc2)c1-c1ccc2c(c1)CN([C@H](CN)Cc1cccc(F)c1)C2=O | < 0.5 µM |
| NC1(c2ccc(-c3nc4c(cc3-c3ccccc3)N(Cc3cnc[nH]3)C(=O)CO4)cc2)CCC1 | 1 to 10 µM |
| N#CCN1C(=O)COc2nc(-c3ccc(C4(N)CCC4)cc3)c(-c3ccccc3)cc21 | 0.1 to 1 µM |
| NC1(c2ccc(-c3nc4c(cc3-c3ccccc3)-n3c(nnc3-c3cccnc3)CO4)cc2)CCC1 | 1 to 10 µM |
| CCCc1ccc(Nc2cnc3[nH]ccc3c2)cc1 | ≤ 10 µM |

Result for "Cc1ccc(Nc2ccnc3[nH]ccc23)cc1[N+](=O)[O-]" , tested on RAC-gamma serine/threonine-protein kinase (Homo sapiens), IC50: ≤ 10 µM
